# assay protocol: soluble fraction after stress (log2 fold change); higher = more stays soluble; pooled small domains, quantitative proteomics
# condition summary: stress: pH 4
observation type: soluble fraction (log2)
Answer with a bare number; do not write a unit.

For record "HMLRIIDYNRVVKDLNGLTPEQLLEKLAESFTVEDKGTEEYRPTELHNFSMYLGGHWYSLTAKPGTYDDND" the listed soluble fraction (log2) is -0.926

For record "HMGTKRWELPRRVQQMATQHGKSISTAAAEELVSRSGENTRMLDNDLVKLAQMVEAPQIELADVERWIVR" the listed soluble fraction (log2) is 0.335

For record "HMAMDYYAIGQRIRKFRKAHDWSQEELAEKVEISTTHMSHIETGSTKLSLPVLVSLANVLDVRTDDLLF" the listed soluble fraction (log2) is -0.272

For record "HMQTQVEVLVKYVLEDGTVYKEDKVSADIGAILDSGDLPMLSNDMKFIDDFLFYEVKESDNVIERKVAKLV" the listed soluble fraction (log2) is -1.41

For record "HMAFRLPNGYGTIRRLTGNRRKPYVALVNPTQVFDDEKGTSHYKYDLLGTFAEKIDAYNAVMQYHKSPGGL" the listed soluble fraction (log2) is -0.223

For record "HMREKLKEYVHLLFAGTVGKEDMEQEILQNTLDRFDDWVARGFSEEDAYRKAVSGIGDIDALLG" the listed soluble fraction (log2) is -2.07

For record "HMSTSFQVQVSVLDLRIRKEPTVKGQEVGKISKGIHTITETRSADGYTWGKLESGQGWIALEFTTKLD" the listed soluble fraction (log2) is 0.0132

For record "HMGTIEEYSKYLINQYFDSLKKPMDAMTTSEKIEIVKSLDKKGIFNLKGSVGELAKRFNTSEKTIYRYLSS" the listed soluble fraction (log2) is 0.00746

For record "HMTGENWAERSRQLAAAGLLVLGKEAQEKIASLPNLIPLIEAAAASDTRLLNAQTIDELLSFVPTEETI" the listed soluble fraction (log2) is -0.98
